# Tgt: T1, human TIGIT (T cell immunoreceptor with Ig and ITIM domains), expressed on cells (human, UniProt Q495A1 22-244)
# T1 sequence: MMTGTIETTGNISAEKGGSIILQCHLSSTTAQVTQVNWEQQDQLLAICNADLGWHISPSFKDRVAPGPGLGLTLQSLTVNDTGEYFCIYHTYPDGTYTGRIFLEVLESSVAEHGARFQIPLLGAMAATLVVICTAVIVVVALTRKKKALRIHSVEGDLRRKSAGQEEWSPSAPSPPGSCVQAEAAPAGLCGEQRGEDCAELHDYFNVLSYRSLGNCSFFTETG
# Method summary: cell-based or functional assay
Result type: EC50 (read off the curve), NFAT luciferase reporter, TIGIT blockade

>>> value_reported("1C12-chimeric (1C12 bivalent VHH antibody) (Fc fusion, not shown: small tags and cut ends) QVQLVESGGGLVQTGDSLRLSCAASSRIFSRYGMGWFRQAPGKEREFVAAISWNGASTTYTDSVKGRFTISRDSAENTTYLQINSLRPEDTAVYYCAADPWGAVKLGTAEYEYWGQGTQVTVSS")
"~0.7 nM"
>>> value_reported("1C12-GLEW humanized bivalent antibody (Fc fusion) VHH: QVQLVESGGGVVQPGRSLRLSCAASSRIFSRYGMGWFRQAPGKGLEWVAAISWNGASTTYTDSVKGRFTISRDNSKNTLYLQMNSLRAEDTAVYYCAADPWGAVKLGTAEYEYWGQGTQVTVSS")
"~2 nM"
>>> value_reported("1C12-EREW humanized bivalent antibody (Fc fusion) VHH: QVQLVESGGGVVQPGRSLRLSCAASSRIFSRYGMGWFRQAPGKEREWVAAISWNGASTTYTDSVKGRFTISRDNSKNTLYLQMNSLRAEDTAVYYCAADPWGAVKLGTAEYEYWGQGTQVTVSS")
"~3 nM"
>>> value_reported("1C12-EREF humanized bivalent antibody (Fc fusion) VHH: QVQLVESGGGVVQPGRSLRLSCAASSRIFSRYGMGWFRQAPGKEREFVAAISWNGASTTYTDSVKGRFTISRDNSKNTLYLQMNSLRAEDTAVYYCAADPWGAVKLGTAEYEYWGQGTQVTVSS")
"~2 nM"

All figures here come from patent US20230134580A1.
